Tested on: MS2 coat protein
measurementDescription: apparent KD of MS2 coat protein; designed switch direction (-1 OFF switch, 1 ON switch): 1; higher = weaker reporter binding
testSettings: input ligand: FMN 200 uM
endpoint: apparent KD of MS2 coat protein (nM)
Kindly answer with a numeric value in nM, unit omitted.

# count of solved cases: 3
sequenceString: CUAAACAGAGGAGGAUAUGCAGAGGAUCACCCUGUAGAAGGCCACAGAGGAGGAUAUGCAGAGGAUCACCCUGUAGAAGGCCAC [pwkr ssNG DX.7] (Eterna round: R96, puzzle: Same State NG 1)
scaleUnit: nM
apparent KD of MS2 coat protein: 121

sequenceString: GCUGCAAUAAACGCCUACAUGAGGAUCACCCAUGUAUGUAGGCAGGAUAUCGUUUGCAAAGCAAACGAGAAGGGCUGUAGUAGC [Mat - Same State NG 3 - JL Mod - D38] (Eterna round: R96, puzzle: Same State NG 3)
scaleUnit: nM
apparent KD of MS2 coat protein: 52.6

sequenceString: GUAGCAUACCGAGGAUAUUCAUUACAUGAGGAUCACCCAUGUUAAUUAUAGGCCAAAAGGCCUUGGGAGAAGGCGGAAUGCUAC [Xeonanis - 20 Mod13] (Eterna round: R96, puzzle: Same State NG 2)
scaleUnit: nM
apparent KD of MS2 coat protein: 12.2

Alright, here's another sequence for you.
Reported apparent KD of MS2 coat protein for AGAGCCGGCACUGAGGAUAUUCAUAUUAAAACAUGAGGAUCACCCAUGUAGGCCAGAAGGCCUUGGGAGAAGGCAGGUCGGCUCU [Mat - Same State 2 - Mod of UCT - D61] (Eterna round: R96, puzzle: Same State 2) was 18.7
